Consider the following molecules and their measured viability readings.
- method.summary: reversal of MRP1-mediated doxorubicin resistance, pilot screen, H69AR cells, doxorubicin co-treatment (AID 601)
- condition.label: H69AR cells + 2 uM doxorubicin, CellTiter-Glo, 72 h; measured here: viability with 2 uM doxorubicin; at 10 µM; stronger effect = lower value
Provide the reading as a plain figure in %.

Looking up N#CC1=C(SCC(=O)NC2CCCCC2)NC(=O)CC1c1ccco1 (stereo not drawn) , I found its viability recorded as 83.1

So, Nc1ccc2cn[nH]c2c1 ? Its viability was 111

Value of viability reported for the molecule CCCC(CCC)C(=O)OC1C[C@H]2CC[C@@H](C1)[N+]2(C)C (stereo partly drawn) is 85

COCc1nnc(NC(=O)CCCOc2ccccc2)s1 has a reported viability of 88.1

* * *

Her2 level values, listed per item
- measurement.target: Receptor tyrosine-protein kinase erbB-2 (Homo sapiens) (UniProt P04626)
- Sequence (P04626 whole entry, looked up): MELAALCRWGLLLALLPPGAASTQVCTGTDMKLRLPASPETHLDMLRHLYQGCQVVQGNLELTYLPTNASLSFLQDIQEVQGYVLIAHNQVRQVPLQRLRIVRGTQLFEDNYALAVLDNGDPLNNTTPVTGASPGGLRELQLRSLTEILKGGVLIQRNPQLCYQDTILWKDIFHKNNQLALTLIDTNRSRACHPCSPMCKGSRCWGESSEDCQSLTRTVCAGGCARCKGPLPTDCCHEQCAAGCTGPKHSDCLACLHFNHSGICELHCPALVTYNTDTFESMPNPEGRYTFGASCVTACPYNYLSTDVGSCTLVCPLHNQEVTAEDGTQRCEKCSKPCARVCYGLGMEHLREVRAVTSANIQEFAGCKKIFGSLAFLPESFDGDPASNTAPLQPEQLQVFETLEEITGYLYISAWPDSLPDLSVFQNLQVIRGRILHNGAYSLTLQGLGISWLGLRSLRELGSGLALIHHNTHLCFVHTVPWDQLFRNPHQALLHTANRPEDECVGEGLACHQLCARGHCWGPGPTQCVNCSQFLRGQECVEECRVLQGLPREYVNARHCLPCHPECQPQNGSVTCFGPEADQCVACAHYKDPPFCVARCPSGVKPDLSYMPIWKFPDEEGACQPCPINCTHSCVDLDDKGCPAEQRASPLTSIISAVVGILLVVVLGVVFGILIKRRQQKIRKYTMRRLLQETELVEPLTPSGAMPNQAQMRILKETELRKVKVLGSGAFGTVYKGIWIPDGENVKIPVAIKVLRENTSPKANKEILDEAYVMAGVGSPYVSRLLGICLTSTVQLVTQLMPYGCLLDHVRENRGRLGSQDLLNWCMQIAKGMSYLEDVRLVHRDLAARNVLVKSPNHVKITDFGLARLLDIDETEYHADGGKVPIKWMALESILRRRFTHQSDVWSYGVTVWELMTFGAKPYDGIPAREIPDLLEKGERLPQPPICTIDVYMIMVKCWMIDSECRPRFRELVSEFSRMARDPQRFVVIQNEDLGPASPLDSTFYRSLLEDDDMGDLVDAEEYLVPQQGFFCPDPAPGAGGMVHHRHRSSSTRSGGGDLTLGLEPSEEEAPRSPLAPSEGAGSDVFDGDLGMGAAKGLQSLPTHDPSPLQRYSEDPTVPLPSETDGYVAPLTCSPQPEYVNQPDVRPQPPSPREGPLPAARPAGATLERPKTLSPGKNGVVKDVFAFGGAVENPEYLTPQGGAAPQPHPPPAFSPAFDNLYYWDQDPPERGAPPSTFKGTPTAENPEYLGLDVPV
- method.summary: reducers of endogenous Her2 protein level, primary screen, SKBR3 breast tumor cells, AlphaScreen, ATP viability (AID 461);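 note: lower value means less Her2 protein in the cells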
- condition.label: 18-24 h, at 10 µM, stronger effect = lower value
Express the result in % but write the number alone.

# molecule, Her2 level (%)
measured = [
    ("Cc1ccc(-c2[nH]nc3c2C(c2ccc(OC(=O)N4CCOCC4)cc2)C(C#N)=C(N)O3)cc1 (stereo unspecified)", 93),
]

Short answer for C=COC(=O)CSc1snc(SCC(=O)OC)c1C#N : Her2 level was 92.5

According to the records, this molecule O=C(N1CCOCC1)N1CCC(NC(=O)C23CC4CC(CC(C4)C2)C3)CC1 displays Her2 level of 88

The recorded Her2 level for CCOC(=O)c1[nH]nc(N)c1NC(=O)c1ccc(Cl)cc1Cl is 120

# molecule O=C(Nc1ccc2c(c1)OCO2)C(c1ccc(Cl)cc1)N1CCN(C(=O)c2ccco2)CC1 (stereo unspecified) ; its Her2 level = 80.5

According to the records, this molecule CCOc1ccc(NC(=O)CN(C)CC(=O)NC2CCCc3ccccc32)cc1OCC (stereo unspecified) displays Her2 level of 88.5

Input CCOc1ccc(N2C(N)=NC(N)=NC2(C)C)cc1 . Output Her2 level: 85

Measured Her2 level of Cn1c(=O)c2c(nc(CN3CCCCC3)n2CCc2ccccc2)n(C)c1=O : 107

Lab note: measured Her2 level of CCOc1ccc2nc(SCc3ccc(C(=O)OC)o3)[nH]c2c1 was 87.5

get_value(item= CCSC1=NCN(CCCC(=O)O)CN1 , readout=Her2 level) returns 100

* * *

differential viability (reversal) values for the compounds below.
- method.summary: reversal of MRP1-mediated doxorubicin resistance, pilot screen, H69AR cells, doxorubicin co-treatment (AID 601)
- condition.label: H69AR cells + 2 uM doxorubicin, CellTiter-Glo, 72 h; at 10 µM; stronger effect = higher value
The reply should be a number in %, with the unit left off.

# compound, differential viability (reversal) (%)
measured = [
    ("N/C(=N/O)c1nc(N2CCCC2)nc(N(c2ccccc2)c2ccccc2)n1", 5.79),
    ("Cc1cccc(OCC(=O)N(Cc2cccs2)C2CCS(=O)(=O)C2)c1C (configuration not stated)", 3.22),
]

Looking up O=C1c2ccccc2C(=O)N1Cc1nc2ccccc2c(=O)n1CCN1CCOCC1 , I see its differential viability (reversal) listed as -3.33

Input CCOC(=O)CC12CN3CN(C1)CC(CC(=O)OCC)(C3)C2=O . Output differential viability (reversal): 3.54

Recorded result, CC(=O)N1C(=O)C2(Nc3ccccc3N2)c2ccccc21 , differential viability (reversal): 9.47

differential viability (reversal) reading for COC(=O)c1cc2ccsc2n1Cc1nc(-c2ccc(OC)cc2)oc1C : -12

Lab note: measured differential viability (reversal) of CC(C)C(NC(=O)OCc1ccccc1)C(=O)OCC(=O)NCc1ccco1 (configuration not stated) was 7.68
